Tested on: HCT116 MTAP-deleted cell lines
METHOD: Cell viability assay (CellTiter-Glo, 7 days), HCT116 MTAP-deleted
Format: cell-based
CONDITION_DETAILS: Homo sapiens, HCT-116; cell viability, HCT116 MTAP-deleted; class symbols; read-out: CC50
Description: Control compounds were analyzed in parallel each time for quality control. In Brief, on Day -1, a serial dilution of stock compounds in DMSO was performed using BioMek liquid handlers and dispensed using Echo acoustic dispenser into 384 well plates. […] Compound plates were stored as frozen until the cells were ready for seeding. […] On Day 7, the viability of cells was measured using a CTG assay kit (CellTitre-Glo;Promega cat no. G7573). […]

# CHEMICAL_STRUCTURE, CC50
records = [
    ("Cc1ncc2c(N)nc3ccc(C(=O)N(C)[C@@H]4COc5cc(C#CC6(O)CC6)ccc54)cc3n12", "0.1 to 1 µM"),
    ("Nc1nc2cnc(C(=O)N3CCC[C@@H]4Oc5c(ccc(C(F)(F)F)c5F)[C@@H]43)cc2n2cncc12", "< 0.1 µM"),
    ("C[C@H]1CN(C(=O)c2cc3c(cc2F)nc(N)c2cncn23)[C@H]2c3cc(F)c(Br)cc3C[C@H]2O1", "< 0.1 µM"),
    ("Nc1nc2cc(F)c(C(=O)N3CCO[C@@H]4Cc5cc(-c6cnn(C(F)(F)F)c6)ccc5[C@@H]43)cc2n2cncc12", "0.1 to 1 µM"),
    ("Nc1nc2cnc(C(=O)N3CCO[C@@H]4Cc5cc(OC(F)(F)F)c(F)cc5[C@@H]43)cc2n2cncc12", "< 0.1 µM"),
    ("CC(=O)N(C)N(Cc1ccn(-c2ccc(F)cc2F)n1)C(=O)c1cc2c(cc1F)nc(N)c1cncn12", "0.1 to 1 µM"),
    ("Nc1nc2ccc(C(=O)N3CCO[C@@H]4Cc5cc(OC(F)(F)F)c(F)cc5[C@@H]43)cc2n2cncc12", "< 0.1 µM"),
]

The values you see were collected from patent US12448388B2.
